# assay-info: Fraction unbound in Sprague-Dawley rat plasma
# Format: ADME, cell-free
measured-quantity: fraction unbound
In your answer, state the number alone without any accompanying words.

# query: fraction unbound of entry `CC(C)(C)n1cc2c(n1)C(=O)CC1(CCN(C(=O)c3ccc4nc[nH]c4c3)CC1)O2`
0.55

----------
# tested-target: Acetyl-CoA carboxylase 2 (Homo sapiens, UniProt O00763)
# Sequence (O00763 whole entry): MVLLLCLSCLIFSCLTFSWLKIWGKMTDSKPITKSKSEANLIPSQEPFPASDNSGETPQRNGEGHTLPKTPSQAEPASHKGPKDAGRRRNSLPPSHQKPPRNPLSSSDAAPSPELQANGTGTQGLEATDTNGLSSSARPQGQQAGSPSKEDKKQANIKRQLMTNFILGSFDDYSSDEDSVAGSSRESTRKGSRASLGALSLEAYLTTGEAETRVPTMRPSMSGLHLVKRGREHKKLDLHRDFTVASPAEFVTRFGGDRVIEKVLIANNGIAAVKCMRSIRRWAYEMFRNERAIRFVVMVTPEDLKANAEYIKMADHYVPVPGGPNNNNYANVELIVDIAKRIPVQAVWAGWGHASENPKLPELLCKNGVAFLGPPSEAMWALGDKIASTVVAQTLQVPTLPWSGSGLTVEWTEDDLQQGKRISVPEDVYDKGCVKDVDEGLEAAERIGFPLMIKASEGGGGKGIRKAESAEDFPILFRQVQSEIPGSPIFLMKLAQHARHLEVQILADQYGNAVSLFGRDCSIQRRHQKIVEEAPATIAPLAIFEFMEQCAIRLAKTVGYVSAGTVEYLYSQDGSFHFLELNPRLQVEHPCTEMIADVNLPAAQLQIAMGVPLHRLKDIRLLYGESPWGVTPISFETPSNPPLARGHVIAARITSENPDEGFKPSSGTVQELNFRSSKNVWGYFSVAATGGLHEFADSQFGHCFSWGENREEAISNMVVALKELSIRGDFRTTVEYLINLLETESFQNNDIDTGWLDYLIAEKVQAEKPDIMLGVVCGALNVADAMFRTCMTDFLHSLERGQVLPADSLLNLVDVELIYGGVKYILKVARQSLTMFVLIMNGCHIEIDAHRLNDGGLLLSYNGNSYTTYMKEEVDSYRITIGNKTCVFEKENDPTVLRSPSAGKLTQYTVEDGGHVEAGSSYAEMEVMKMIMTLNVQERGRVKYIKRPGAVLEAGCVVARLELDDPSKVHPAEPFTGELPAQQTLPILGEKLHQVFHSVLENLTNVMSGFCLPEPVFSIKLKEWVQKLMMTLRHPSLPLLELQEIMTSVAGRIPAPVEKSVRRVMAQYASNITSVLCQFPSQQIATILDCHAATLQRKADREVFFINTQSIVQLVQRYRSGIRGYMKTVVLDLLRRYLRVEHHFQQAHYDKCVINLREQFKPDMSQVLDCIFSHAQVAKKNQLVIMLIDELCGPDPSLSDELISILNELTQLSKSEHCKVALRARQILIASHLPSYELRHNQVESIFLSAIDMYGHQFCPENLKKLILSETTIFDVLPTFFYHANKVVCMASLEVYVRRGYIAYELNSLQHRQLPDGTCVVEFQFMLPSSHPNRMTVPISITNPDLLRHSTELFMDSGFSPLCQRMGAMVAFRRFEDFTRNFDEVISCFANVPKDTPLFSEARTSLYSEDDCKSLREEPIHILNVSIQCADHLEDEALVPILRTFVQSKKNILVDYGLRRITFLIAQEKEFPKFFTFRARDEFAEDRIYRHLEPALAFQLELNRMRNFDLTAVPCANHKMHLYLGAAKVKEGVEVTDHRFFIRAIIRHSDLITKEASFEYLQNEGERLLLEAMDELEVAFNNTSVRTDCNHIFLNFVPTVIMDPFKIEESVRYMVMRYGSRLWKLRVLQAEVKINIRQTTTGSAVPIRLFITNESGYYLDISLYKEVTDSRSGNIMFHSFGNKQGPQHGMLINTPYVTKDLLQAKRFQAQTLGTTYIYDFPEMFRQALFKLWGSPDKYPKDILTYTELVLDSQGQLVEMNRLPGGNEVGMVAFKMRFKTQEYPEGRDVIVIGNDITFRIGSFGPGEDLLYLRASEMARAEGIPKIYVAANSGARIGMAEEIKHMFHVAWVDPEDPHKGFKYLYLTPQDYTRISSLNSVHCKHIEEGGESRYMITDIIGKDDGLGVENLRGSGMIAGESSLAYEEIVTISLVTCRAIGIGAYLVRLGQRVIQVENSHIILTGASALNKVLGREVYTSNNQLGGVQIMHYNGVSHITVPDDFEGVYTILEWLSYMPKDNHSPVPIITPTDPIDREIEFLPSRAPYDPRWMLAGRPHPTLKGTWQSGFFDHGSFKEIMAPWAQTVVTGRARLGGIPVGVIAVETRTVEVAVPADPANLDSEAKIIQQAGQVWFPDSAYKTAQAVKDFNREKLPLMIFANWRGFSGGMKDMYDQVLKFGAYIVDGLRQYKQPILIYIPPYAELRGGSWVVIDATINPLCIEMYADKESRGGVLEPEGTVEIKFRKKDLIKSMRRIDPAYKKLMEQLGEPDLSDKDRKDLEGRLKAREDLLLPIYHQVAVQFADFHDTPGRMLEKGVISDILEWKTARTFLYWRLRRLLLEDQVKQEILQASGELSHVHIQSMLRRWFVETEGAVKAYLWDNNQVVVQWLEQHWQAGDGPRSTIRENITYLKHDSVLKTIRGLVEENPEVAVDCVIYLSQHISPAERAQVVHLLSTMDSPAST
# assay-info: Inhibition of human Acetyl-CoA carboxylase 2 expressed in CHO cells after 1 hr by fluorescence assay
Checkbox rule: IC50 lower than 40 nM = t; IC50 not lower than 40 nM = f.

Dear reviewer, please state whether `Cc1n[nH]c2c(C)cc(C(=O)N3CCC4(CC3)CC(=O)c3nn(C(C)C)cc3O4)cc12` has IC50 strictly beneath 40 nM.
t

Dear reviewer, please state whether `Cc1cc(C(=O)N2CCC3(CC2)CC(=O)c2nn(C4CCCCC4)cc2O3)cc2cn[nH]c12` has IC50 strictly beneath 40 nM.
f

Dear reviewer, please state whether `Cn1ncc2ccc(C(=O)N3CCC4(CC3)CC(=O)c3nn(C(C)(C)C)cc3O4)cc21` has IC50 strictly beneath 40 nM.
t

Dear reviewer, please state whether `CCCn1cc2c(n1)C(=O)CC1(CCN(C(=O)c3cc(C)c4[nH]ncc4c3)CC1)O2` has IC50 strictly beneath 40 nM.
f

Dear reviewer, please state whether `Cc1nc2c(C)cc(C(=O)N3CCC4(CC3)CC(=O)c3nn(C(C)(C)C)cc3O4)cc2[nH]1` has IC50 strictly beneath 40 nM.
t

Dear reviewer, please state whether `CCn1nc2c(c1C)OC1(CCN(C(=O)c3cc(C)c4[nH]nc(C)c4c3)CC1)CC2=O` has IC50 strictly beneath 40 nM.
t

----------
# assay-info: Oral bioavailability in Sprague-Dawley rat
# Format: ADME, organism-based
# test-parameters: in vivo
measured-quantity: bioavailability (%)
Answer with a number only, understood to be in %.

# query: bioavailability of entry `CC(C)(C)n1cc2c(n1)C(=O)CC1(CCN(C(=O)c3ccc4nc[nH]c4c3)CC1)O2`
50

----------
# assay-info: Aqueous solubility at pH 6.5
# Format: physicochemical
# test-parameters: buffer
measured-quantity: solubility (µM)
Answer with a number only, understood to be in µM.

# query: solubility of entry `CC(C)(C)n1cc2c(n1)C(=O)CC1(CCN(C(=O)c3ccc4nc[nH]c4c3)CC1)O2`
300

----------
# tested-target: Acetyl-CoA carboxylase 2 (Homo sapiens)
# assay-info: Inhibition of human Acetyl-CoA carboxylase 2 expressed in CHO cells after 1 hr by fluorescence assay
# class assignment by measured IC50: range 1 = under 0.02 µM, range 2 = from 0.02 µM up to 0.06 µM, range 3 = 0.06 µM and over

Below are worked cases with known answers.
GET /class?item= `Cc1cc(C(=O)N2CCC3(CC2)CC(=O)c2nn(C(C)C)cc2O3)cc2cn[nH]c12`
range 2

GET /class?item= `Cc1cc(C(=O)N2CCC3(CC2)CC(=O)c2nn(C(C)(C)C)cc2O3)cc2[nH]cnc12`
range 1

GET /class?item= `Cc1cc(C(=O)N2CCC3(CC2)CC(=O)c2nn(C4CCCC4)cc2O3)cc2cn[nH]c12`
range 1

GET /class?item= `CCn1nc2c(c1C)OC1(CCN(C(=O)c3ccc4[nH]ncc4c3)CC1)CC2=O`
range 3

GET /class?item= `Cc1cc(C(=O)N2CCC3(CC2)CC(=O)c2nn(C)cc2O3)cc2cn[nH]c12`
range 3

GET /class?item= `CCn1cc2c(n1)C(=O)CC1(CCN(C(=O)c3cc(C)c4[nH]ncc4c3)CC1)O2`
range 3

GET /class?item= `CCn1nc2c(c1C)OC1(CCN(C(=O)c3cc(C)c4nc[nH]c4c3)CC1)CC2=O`
range 3

GET /class?item= `Cc1cc(C(=O)N2CCC3(CC2)CC(=O)c2nn(C(C)(C)C)cc2O3)cc2cn[nH]c12`
range 1

GET /class?item= `CCn1nc2c(c1C)OC1(CCN(C(=O)c3cc(C)c4[nH]ncc4c3)CC1)CC2=O`
range 2

GET /class?item= `CCn1nc2c(c1C)OC1(CCN(C(=O)c3ccc4[nH]nc(C)c4c3)CC1)CC2=O`
range 2

---
GET /class?item= `CCn1nc2c(c1C)OC1(CCN(C(=O)c3cc(C)c4nc(C)[nH]c4c3)CC1)CC2=O`
range 2

GET /class?item= `Cc1cc(C(=O)N2CCC3(CC2)CC(=O)c2nn(C4CCC4)cc2O3)cc2cn[nH]c12`
range 1

GET /class?item= `CCc1cc(C(=O)N2CCC3(CC2)CC(=O)c2nn(CC)c(C)c2O3)cc2cn[nH]c12`
range 2

GET /class?item= `Cc1cc(C(=O)N2CCC3(CC2)CC(=O)c2nn(C)c(C)c2O3)cc2cn[nH]c12`
range 3
